Tested on: CCRF-CEM leukemia
Test: NCI-60 one-dose screen, 48 h (100 = growth as untreated, 0 = no growth, -100 = all killed)
Settings: 10 µM
Procedure: Growth inhibition of the CCRF-CEM human tumor cell line is measured as a screen for anti-cancer activity. Cells are grown in 96 well plates and exposed to the test compound for 48 hours. Compounds are tested at a single concentration, which is 10^-5 M for most compounds. The reported endpoint is percent growth (GI% or GIPRCNT), where numbers from 0 - 100% represent growth inhibition, and numbers from -100% - 0 represent cell death. For example, a value of 40 represents 60% growth inhibition. […]
About 83,000 compounds went through this panel and 20% of them were active in at least one assay; those are over-represented in the sample as a whole.
1 if growth is below 70%. 0 if not; exact matches included in 0.

Inquiry: Just wondering, is growth of CCOc1ccc(/C=N/NC(=O)c2cccc3ccccc23)cc1OCC below 70%?
Reply text: 0

Inquiry: Just wondering, is growth of CCCCCCC(C)N(CC(C)(C)O)C(=O)c1ccc([N+](=O)[O-])cc1 (configuration not stated) below 70%?
Reply text: 0

Inquiry: Just wondering, is growth of O=C(N/N=C\c1ccc(-c2ccc(Br)cc2)o1)c1cc2oc(-c3cccc(C(F)(F)F)c3)cc2[nH]1 below 70%?
Reply text: 1

Inquiry: Just wondering, is growth of O=C(N/N=C/c1coc2ccccc2c1=O)c1cc2oc(-c3ccccc3)cc2[nH]1 below 70%?
Reply text: 0

Inquiry: Just wondering, is growth of COc1cc(-c2nc(/C=C3/C(=O)Nc4ccccc43)c3ccccn23)cc(OC)c1OC below 70%?
Reply text: 0

Inquiry: Just wondering, is growth of COc1ccc(CNCCCN2C(=O)c3ccc4c5c(ccc(c35)C2=O)C(=O)N(CCCNCc2ccc(OC)c(OC)c2OC)C4=O)c(OC)c1OC below 70%?
Reply text: 1

Inquiry: Just wondering, is growth of COC(=O)c1ccc2[nH]c(O)c(C(=Nc3ccc(N(C)C(=O)CN4CCN(C)CC4)cc3)c3ccc(CCO)cc3)c2c1 below 70%?
Reply text: 1

Inquiry: Just wondering, is growth of C/C=C/C/C=C/[C@H](C)C[C@H](O)[C@@H]1C[C@@H]2O[C@H]2/C=C/[C@H](O)[C@@H](O)/C=C/C[C@H](C)CC(=O)O1 below 70%?
Reply text: 1

Inquiry: Just wondering, is growth of Oc1ccc([S+](c2ccc(O)cc2)c2ccc(O)cc2)cc1 below 70%?
Reply text: 0

Inquiry: Just wondering, is growth of NC(N)=Nc1ccc(/C=C2\C=Cc3ccccc32)cc1 below 70%?
Reply text: 1

Inquiry: Just wondering, is growth of CN1CCN(Cc2ccc(NC(=O)c3cncc(C#Cc4c(N)ncc5ccc(F)cc45)c3)cc2C(F)(F)F)CC1 below 70%?
Reply text: 1

Inquiry: Just wondering, is growth of CC(O)CCC(C)[N+](=O)[O-] (configuration not stated) below 70%?
Reply text: 0

###

test system: MOLT-4 leukemia; test: NCI-60 one-dose screen, 48 h (100 = growth as untreated, 0 = no growth, -100 = all killed); settings: 10 µM unless noted
The panel holds about 83,000 compounds, 20% with a hit somewhere; the sample as a whole holds those more often.
Parameter threshold = 80%. Response is Criterion met when growth meets or exceeds it, else Criterion not met.

CCCCCCNc1nc(N2CCOCC2)c2[nH]c(NCCCCCC)nc2n1: Criterion not met
CCCC(=O)Nc1ccccc1C(=O)O: Criterion met
CCCCn1c(Cc2ccc(OC)cc2)nc2cc(OC)c(OC)cc2c1=O: Criterion not met
CC(=O)Nc1ccc(CC#N)cc1Br: Criterion met
Cc1cc2cn3c4ccc(O)cc4nc(N)c3c2cc1C: Criterion not met
O=C1CSC(c2ccccc2Cl)N1c1nnc(-c2ccncc2)o1 (stereo not drawn): Criterion met

Inquiry: Record O=C(/C=C1\C(=O)N(Cc2ccccc2)c2ccccc21)c1ccc(OCCN2CCCCC2)cc1 ; criterion: growth no lower than 80%. Met?
Reply text: Criterion not met
